All values here come from patent US6350430B1.

# target or system: human melanocortin receptor 3 (human) (UniProt P41968)
# Sequence (P41968 whole entry): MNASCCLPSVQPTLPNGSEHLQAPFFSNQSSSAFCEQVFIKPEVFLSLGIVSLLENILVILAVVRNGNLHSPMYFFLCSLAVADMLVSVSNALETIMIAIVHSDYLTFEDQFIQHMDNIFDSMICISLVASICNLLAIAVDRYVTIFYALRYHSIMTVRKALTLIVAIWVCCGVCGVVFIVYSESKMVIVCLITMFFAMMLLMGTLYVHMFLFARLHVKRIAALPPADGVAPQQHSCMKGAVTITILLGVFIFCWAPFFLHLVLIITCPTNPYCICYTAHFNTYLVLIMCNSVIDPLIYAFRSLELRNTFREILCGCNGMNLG
# procedure details: saturation radioligand binding; mouse L cells expressing MC3
recorded endpoint: Kd (nM)
Hi! Could you send only the number? It should be in nM, unit omitted.

Give Kd (human melanocortin receptor 3 (human) (UniProt P41968)) of the following substance: ^125I-HP 467, Ac-Nle-Gln-His-(p(^125I)-D-Phe)-Arg-(D-Trp)-Gly-NH2
0.04

---

# target or system: human melanocortin receptor 1 (human) (UniProt Q01726)
# Sequence (Q01726 whole entry): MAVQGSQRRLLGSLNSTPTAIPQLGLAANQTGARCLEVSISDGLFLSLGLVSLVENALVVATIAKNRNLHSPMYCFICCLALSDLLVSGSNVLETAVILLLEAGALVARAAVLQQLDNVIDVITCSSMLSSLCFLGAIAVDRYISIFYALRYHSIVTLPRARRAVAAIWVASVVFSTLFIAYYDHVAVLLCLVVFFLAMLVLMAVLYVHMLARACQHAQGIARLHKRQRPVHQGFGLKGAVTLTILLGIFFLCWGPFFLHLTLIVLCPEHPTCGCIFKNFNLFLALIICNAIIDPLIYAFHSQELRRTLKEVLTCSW
# procedure details: saturation radioligand binding; mouse L cells expressing MC1
recorded endpoint: pKd
The meaning of pKd here: minus log10 of the concentration in molar units.

Missing value: pKd, human melanocortin receptor 1 (human) (UniProt Q01726), entry ^125I-HP 467, Ac-Nle-Gln-His-(p(^125I)-D-Phe)-Arg-(D-Trp)-Gly-NH2 . Fill in?
10.04
